Data origin: ChEMBL document CHEMBL5442741

- test_system: Inhibitor of nuclear factor kappa-B kinase subunit alpha (Homo sapiens) (UniProt O15111)
- Sequence (whole entry): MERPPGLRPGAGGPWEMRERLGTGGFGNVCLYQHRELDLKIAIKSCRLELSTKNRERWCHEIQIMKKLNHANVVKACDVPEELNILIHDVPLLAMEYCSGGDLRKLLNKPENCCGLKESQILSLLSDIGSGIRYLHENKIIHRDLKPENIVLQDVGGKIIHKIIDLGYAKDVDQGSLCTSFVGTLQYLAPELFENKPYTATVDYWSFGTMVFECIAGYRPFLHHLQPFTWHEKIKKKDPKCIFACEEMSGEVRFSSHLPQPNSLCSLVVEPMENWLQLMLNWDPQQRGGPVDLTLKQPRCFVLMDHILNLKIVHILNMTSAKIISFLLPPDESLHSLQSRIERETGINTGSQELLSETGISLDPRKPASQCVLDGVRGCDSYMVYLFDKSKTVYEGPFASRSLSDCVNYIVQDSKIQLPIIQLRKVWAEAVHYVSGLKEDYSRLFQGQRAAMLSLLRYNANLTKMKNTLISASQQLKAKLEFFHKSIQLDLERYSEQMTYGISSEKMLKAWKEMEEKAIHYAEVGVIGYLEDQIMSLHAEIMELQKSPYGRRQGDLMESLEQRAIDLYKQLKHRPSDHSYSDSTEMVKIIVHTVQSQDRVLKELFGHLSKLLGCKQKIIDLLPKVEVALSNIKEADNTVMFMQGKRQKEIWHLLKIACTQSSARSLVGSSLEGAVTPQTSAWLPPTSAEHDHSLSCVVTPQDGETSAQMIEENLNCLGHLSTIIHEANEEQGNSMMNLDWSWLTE
- protocol_description: Enzymatic radiometric [Km ATP] KinaseProfiler LeadHunter assay, kinase: IKK-alpha, catalogue number: 14-461KP The assay has been performed by Eurofins Discovery.
- experimental_conditions: ATP concentration 10.0 uM, Test compound concentration 10.0 uM
result_type: Activity (%)
Give the number; % is assumed, so skip it.

Query (compound): CC(C)[C@@H](Nc1ncnc2[nH]ccc12)c1ccc2c(c1)S(=O)(=O)CCC2 ; field requested: Activity
91

Next compound: CNCc1cc(-c2cc3c(N[C@@H](c4ccc5c(c4)S(=O)(=O)CCC5)C(C)C)ncnc3[nH]2)co1
79

Next compound: CC(C)[C@H](Nc1ncnc2[nH]ccc12)c1ccc2c(c1)S(=O)(=O)CCC2
92

Next compound: C[C@H](C(=O)O)[C@@H](NC(=O)c1ncnc2[nH]ccc12)c1ccc(Br)cc1
99

Next compound: CNC(=O)Cn1cc(-c2cc3c(N[C@@H](c4ccc5c(c4)S(=O)(=O)CCC5)C(C)C)ncnc3[nH]2)cn1
84

Next compound: Cc1nn(C)cc1-c1cc2c(N[C@H](c3ccc4c(c3)S(=O)(=O)CCC4)C(C)C)ncnc2[nH]1
94

Next compound: COc1ccc([C@@H](Cc2nnn[nH]2)NC(=O)c2ncnc3[nH]ccc23)cc1
99

###

- test_system: CDK7/Cyclin H/MNAT1 (Homo sapiens) (UniProt P51946+P50613+P51948)
- protocol_description: Enzymatic radiometric [Km ATP] KinaseProfiler LeadHunter assay, kinase: CDK7/cyclinH/MAT1, catalogue number: 14-476KP The assay has been performed by Eurofins Discovery.
- Assay type: protein-complex assay
- experimental_conditions: ATP concentration 90.0 uM, Test compound concentration 10.0 uM
result_type: Activity (%)
Give the number; % is assumed, so skip it.

Query (molecule): CC(C)[C@@H](Nc1ncnc2[nH]c(C(=O)N[C@@H]3CCN(C)C3)cc12)c1ccc2c(c1)S(=O)(=O)CCC2 ; field requested: Activity
101

Next molecule: COc1ccc([C@H](Cc2nnn[nH]2)NC(=O)c2ncnc3[nH]ccc23)cc1
107

###

- test_system: cAMP-dependent protein kinase catalytic subunit alpha (Homo sapiens) (UniProt P17612)
- protocol_description: Enzymatic radiometric [Km ATP] KinaseProfiler LeadHunter assay, kinase: PKA, catalogue number: 14-440KP The assay has been performed by Eurofins Discovery.
- experimental_conditions: ATP concentration 10.0 uM, Test compound concentration 10.0 uM
result_type: Activity (%)
Give the number; % is assumed, so skip it.

Query (compound): C[C@H](C(=O)O)[C@@H](NC(=O)c1ncnc2[nH]ccc12)c1ccc(Br)cc1 ; field requested: Activity
87

Next compound: CNCc1cc(-c2cc3c(N[C@@H](c4ccc5c(c4)S(=O)(=O)CCC5)C(C)C)ncnc3[nH]2)co1
96

Next compound: COc1ccc([C@H](Cc2nnn[nH]2)NC(=O)c2ncnc3[nH]ccc23)cc1
88

Next compound: Cc1nn(C)cc1-c1cc2c(N[C@H](c3ccc4c(c3)S(=O)(=O)CCC4)C(C)C)ncnc2[nH]1
95

Next compound: CC(C)[C@@H](Nc1ncnc2[nH]ccc12)c1ccc2c(c1)S(=O)(=O)CCC2
98

###

- test_system: Tyrosine-protein kinase receptor TYRO3 (Homo sapiens) (UniProt Q06418)
- Sequence (Q06418 whole entry): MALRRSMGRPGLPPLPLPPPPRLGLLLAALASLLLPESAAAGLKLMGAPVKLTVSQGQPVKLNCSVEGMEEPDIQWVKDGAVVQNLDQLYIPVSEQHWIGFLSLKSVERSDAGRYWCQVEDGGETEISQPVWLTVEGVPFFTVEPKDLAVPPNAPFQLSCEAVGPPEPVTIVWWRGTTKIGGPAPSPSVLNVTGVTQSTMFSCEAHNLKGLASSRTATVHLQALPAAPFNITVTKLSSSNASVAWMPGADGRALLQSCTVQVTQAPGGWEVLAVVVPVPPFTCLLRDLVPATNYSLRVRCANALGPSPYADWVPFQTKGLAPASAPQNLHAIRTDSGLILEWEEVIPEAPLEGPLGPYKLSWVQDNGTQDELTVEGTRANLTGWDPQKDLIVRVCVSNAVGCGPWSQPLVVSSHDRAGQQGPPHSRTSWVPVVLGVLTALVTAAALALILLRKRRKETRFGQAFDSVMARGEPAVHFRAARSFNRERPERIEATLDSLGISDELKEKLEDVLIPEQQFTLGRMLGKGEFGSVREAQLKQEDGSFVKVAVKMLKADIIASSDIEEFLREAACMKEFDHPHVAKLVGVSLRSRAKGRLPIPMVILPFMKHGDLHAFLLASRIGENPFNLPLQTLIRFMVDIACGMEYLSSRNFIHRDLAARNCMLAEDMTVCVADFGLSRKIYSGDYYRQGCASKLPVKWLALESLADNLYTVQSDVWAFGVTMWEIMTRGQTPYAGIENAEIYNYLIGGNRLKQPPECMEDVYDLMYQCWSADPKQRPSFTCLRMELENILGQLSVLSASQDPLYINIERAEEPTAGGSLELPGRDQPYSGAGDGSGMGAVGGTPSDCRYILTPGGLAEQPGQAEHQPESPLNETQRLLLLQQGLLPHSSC
- protocol_description: Enzymatic radiometric [Km ATP] KinaseProfiler LeadHunter assay, kinase: Rse, catalogue number: 14-535KP The assay has been performed by Eurofins Discovery.
- experimental_conditions: ATP concentration 45.0 uM, Test compound concentration 10.0 uM
// values below are reported Activity
Give the number; % is assumed, so skip it.

CC(C)[C@H](Nc1ncnc2[nH]c(-c3cnn(C)c3C#N)cc12)c1ccc2c(n1)OCCO2 = 105
C[C@H](C(=O)O)[C@@H](NC(=O)c1ncnc2[nH]ccc12)c1ccc(Br)cc1 = 87
CNC(=O)Cn1cc(-c2cc3c(N[C@@H](c4ccc5c(c4)S(=O)(=O)CCC5)C(C)C)ncnc3[nH]2)cn1 = 89

Query (compound): Cc1nn(C)cc1-c1cc2c(N[C@H](c3ccc4c(c3)S(=O)(=O)CCC4)C(C)C)ncnc2[nH]1 ; field requested: Activity
96

Next compound: CC(C)[C@H](Nc1ncnc2[nH]ccc12)c1ccc2c(c1)S(=O)(=O)CCC2
86

Next compound: CC(C)[C@@H](Nc1ncnc2[nH]c(C(=O)N[C@@H]3CCN(C)C3)cc12)c1ccc2c(c1)S(=O)(=O)CCC2
107

Next compound: COc1ccc([C@H](Cc2nnn[nH]2)NC(=O)c2ncnc3[nH]ccc23)cc1
100

Next compound: Cn1ncc(-c2cc3c(N[C@@H](c4ccc5c(n4)OCCO5)C(C)(C)C)ncnc3[nH]2)c1C#N
110

Next compound: COc1ccc([C@@H](Cc2nnn[nH]2)NC(=O)c2ncnc3[nH]ccc23)cc1
88

Next compound: CC(C)[C@@H](Nc1ncnc2[nH]ccc12)c1ccc2c(c1)S(=O)(=O)CCC2
115

Next compound: CNCc1cc(-c2cc3c(N[C@@H](c4ccc5c(c4)S(=O)(=O)CCC5)C(C)C)ncnc3[nH]2)co1
81

###

- test_system: Cyclin-dependent kinase 1/cyclin B (Homo sapiens) (UniProt P06493+P14635+Q8WWL7+O95067)
- protocol_description: Enzymatic radiometric [Km ATP] KinaseProfiler LeadHunter assay, kinase: CDK1/cyclinB, catalogue number: 14-450KP The assay has been performed by Eurofins Discovery.
- Format: protein-complex assay
- experimental_conditions: ATP concentration 45.0 uM, Test compound concentration 10.0 uM
result_type: Activity
Answer format: number, then unit.

CC(C)[C@H](Nc1ncnc2[nH]ccc12)c1ccc2c(c1)S(=O)(=O)CCC2 = 93%
CNCc1cc(-c2cc3c(N[C@@H](c4ccc5c(c4)S(=O)(=O)CCC5)C(C)C)ncnc3[nH]2)co1 = 97%

Query (molecule): Cn1ncc(-c2cc3c(N[C@@H](c4ccc5c(n4)OCCO5)C(C)(C)C)ncnc3[nH]2)c1C#N ; field requested: Activity
97%

Next molecule: Cc1nn(C)cc1-c1cc2c(N[C@H](c3ccc4c(c3)S(=O)(=O)CCC4)C(C)C)ncnc2[nH]1
91%

Next molecule: CC(C)[C@@H](Nc1ncnc2[nH]ccc12)c1ccc2c(c1)S(=O)(=O)CCC2
129%

Next molecule: C[C@H](C(=O)O)[C@@H](NC(=O)c1ncnc2[nH]ccc12)c1ccc(Br)cc1
92%

Next molecule: CNC(=O)Cn1cc(-c2cc3c(N[C@@H](c4ccc5c(c4)S(=O)(=O)CCC5)C(C)C)ncnc3[nH]2)cn1
88%

Next molecule: COc1ccc([C@H](Cc2nnn[nH]2)NC(=O)c2ncnc3[nH]ccc23)cc1
98%

Next molecule: CC(C)[C@@H](Nc1ncnc2[nH]c(C(=O)N[C@@H]3CCN(C)C3)cc12)c1ccc2c(c1)S(=O)(=O)CCC2
103%

Next molecule: CC(C)[C@H](Nc1ncnc2[nH]c(-c3cnn(C)c3C#N)cc12)c1ccc2c(n1)OCCO2
89%

Next molecule: COc1ccc([C@@H](Cc2nnn[nH]2)NC(=O)c2ncnc3[nH]ccc23)cc1
108%

###

- test_system: UniProt:Q9NWZ3
- Sequence (Q9NWZ3 whole entry): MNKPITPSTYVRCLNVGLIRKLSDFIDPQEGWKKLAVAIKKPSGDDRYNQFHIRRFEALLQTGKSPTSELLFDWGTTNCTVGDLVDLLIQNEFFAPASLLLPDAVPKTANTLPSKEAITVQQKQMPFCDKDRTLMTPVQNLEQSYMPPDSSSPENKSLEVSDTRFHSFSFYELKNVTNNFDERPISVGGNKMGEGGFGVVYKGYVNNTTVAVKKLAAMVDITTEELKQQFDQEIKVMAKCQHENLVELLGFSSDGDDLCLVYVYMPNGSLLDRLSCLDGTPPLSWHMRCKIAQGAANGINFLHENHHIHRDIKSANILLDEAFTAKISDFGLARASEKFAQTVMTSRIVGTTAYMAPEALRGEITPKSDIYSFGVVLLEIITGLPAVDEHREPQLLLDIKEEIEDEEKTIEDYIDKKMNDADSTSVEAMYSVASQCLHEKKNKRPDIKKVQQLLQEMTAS
- protocol_description: Enzymatic radiometric [Km ATP] KinaseProfiler LeadHunter assay, kinase: IRAK4, catalogue number: 14-599KP The assay has been performed by Eurofins Discovery.
- experimental_conditions: ATP concentration 200.0 uM, Test compound concentration 10.0 uM
// values below are reported Activity
Give the number; % is assumed, so skip it.

CC(C)[C@H](Nc1ncnc2[nH]c(-c3cnn(C)c3C#N)cc12)c1ccc2c(n1)OCCO2 = 106
CC(C)[C@@H](Nc1ncnc2[nH]c(C(=O)N[C@@H]3CCN(C)C3)cc12)c1ccc2c(c1)S(=O)(=O)CCC2 = 105
CNC(=O)Cn1cc(-c2cc3c(N[C@@H](c4ccc5c(c4)S(=O)(=O)CCC5)C(C)C)ncnc3[nH]2)cn1 = 101
COc1ccc([C@H](Cc2nnn[nH]2)NC(=O)c2ncnc3[nH]ccc23)cc1 = 109
COc1ccc([C@@H](Cc2nnn[nH]2)NC(=O)c2ncnc3[nH]ccc23)cc1 = 91

Query Activity on UniProt:Q9NWZ3 for CC(C)[C@@H](Nc1ncnc2[nH]ccc12)c1ccc2c(c1)S(=O)(=O)CCC2
88

Next molecule: CNCc1cc(-c2cc3c(N[C@@H](c4ccc5c(c4)S(=O)(=O)CCC5)C(C)C)ncnc3[nH]2)co1
100

Next molecule: Cc1nn(C)cc1-c1cc2c(N[C@H](c3ccc4c(c3)S(=O)(=O)CCC4)C(C)C)ncnc2[nH]1
107
